# Assay Details: Metabolic stability evaluation, human liver microsome assay
# Type: in vitro ADME
# Experimental Context: pH 7.4; human liver microsomes 0.5 mg/mL, compound 1 μM, 37° C.; read-out: HLM Clint
Readout: microsomal CLint at 1 μM (µL/min/mg)
// return numeric value only (unit: µL/min/mg, not printed)

Exercise: Record request: microsomal CLint at 1 μM value, item Cc1ccc(C(=O)Nc2ccc(CN3CCN(C)CC3)c(C(F)(F)F)c2)cc1C#Cc1cn([C@H]2CC[C@H](O)CC2)c2ncnc(N)c12
Key: 6.1

Exercise: Requested field: microsomal CLint at 1 μM. Item: Cc1ccc(C(=O)Nc2ccc(CN3CCN(C)CC3)c(C(F)(F)F)c2)cc1C#Cc1cn(C(C)C)c2ncnc(N)c12
Key: 11.8

Exercise: I'd like to know its microsomal CLint at 1 μM. The compound in question is Cc1cn(-c2cc(NC(=O)c3ccc(C)c(C#Cc4cn(C(C)C)c5ncnc(N)c45)c3)cc(C(F)(F)F)c2)cn1
Key: 20.9

Exercise: If you can, please state the reported microsomal CLint at 1 μM value of Cc1ccc(NC(=O)c2ccc(CN3CCN(C)CC3)c(C(F)(F)F)c2)cc1C#Cc1cn([C@H]2CC[C@H](O)CC2)c2ncnc(N)c12 .
Key: 7.6
